Readings of pIC50 for the listed compounds
Tested on: WiDr
Assay: Inhibition of cell growth in drug resistant WiDr colon cell line
Type: functional, cell-based
Conditions: Homo sapiens
Scale explanation: pIC50 corresponds to minus log10 of a concentration expressed in moles per litre.

// pIC50 lookup, compound = N#CC1CN1C(=O)Nc1cccnc1 (stereo not drawn) , result: 4.74

// pIC50 lookup, compound = CCOC(=O)CNC(=O)N1CC1C#N (stereo not drawn) , result: 4.48

// pIC50 lookup, compound = N#CC1CN1C(=O)Nc1ccc(Cl)cc1Cl (stereo not drawn) , result: 5.72

// pIC50 lookup, compound = CCNC(=O)N1CC1C#N (stereo not drawn) , result: 5.15

----------
Test system: WiDr
Test: Inhibition of cell growth in drug resistant WiDr colon cell line
Type: functional, cell-based
Settings: Homo sapiens
pIC50: −log10 of the molar value.
Respond with 1.0 for pIC50 values of 5 and above, 0.0 for values below.

Study these solved cases before continuing.
| COMPOUND | LABEL_CLASS |
| --- | --- |
| CCCCNC(=O)N1CC1C#N (configuration not stated) | 0.0 |
| N#CC1CN1C(=O)Nc1ccc(S(N)(=O)=O)cc1 (configuration not stated) | 0.0 |
| COC(=O)c1ccccc1NC(=O)N1CC1C#N (configuration not stated) | 0.0 |

Determine whether measured pIC50 meets or exceeds 5 for N#CC1CN1C(=O)Nc1cccc2ccccc12 (configuration not stated)
1.0

Determine whether measured pIC50 meets or exceeds 5 for CNC(=O)N1CC1C#N (configuration not stated)
0.0

Determine whether measured pIC50 meets or exceeds 5 for N#CC1CN1C(=O)Nc1ccc(C(F)(F)F)cc1 (configuration not stated)
1.0

----------
Readings of pIC50 for the listed compounds
Test system: A-375
Assay: Inhibition of cell growth in (A375) melan cell line
Format: functional, cell-based
Settings: Homo sapiens
Scale explanation: pIC50 corresponds to minus log10 of a concentration expressed in moles per litre.

The cases that follow already have their pIC50 on record.
| COMPOUND | TESTED_ON | pIC50 |
| --- | --- | --- |
| N#CC1CN1C(=O)Nc1ccc([N+](=O)[O-])cc1 (stereo not given) | A-375 | 5.41 |
| CCNC(=O)N1CC1C#N (stereo not given) | A-375 | 4.44 |
| CCOC(=O)c1ccc(NC(=O)N2CC2C#N)cc1 (stereo not given) | A-375 | 5.24 |

// pIC50 lookup, compound = CNC(=O)N1CC1C#N (stereo not given) , result: 4.77

// pIC50 lookup, compound = N#CC1CN1C(=O)Nc1ccc(C(F)(F)F)cc1 (stereo not given) , result: 4.93

----------
Test system: WiDr
Assay: Inhibition of cell growth in drug sensitive WiDr colon cell line
Assay type: functional, cell-based
Settings: Homo sapiens
OBSERVATION_TYPE: pIC50
Scale explanation: pIC50 corresponds to minus log10 of a concentration expressed in moles per litre.

| MOLECULE | TESTED_ON | pIC50 |
| --- | --- | --- |
| CC(C)(C)NC(=O)N1CC1C#N (stereo unspecified) | WiDr | 3.74 |
| CCNC(=O)N1CC1C#N (stereo unspecified) | WiDr | 5.40 |
| CNC(=O)N1CC1C#N (stereo unspecified) | WiDr | 4.68 |
| CC(=O)c1cccc(NC(=O)N2CC2C#N)c1 (stereo unspecified) | WiDr | 5.48 |

Next item in the queue.
Given the molecule CCOC(=O)c1ccc(NC(=O)N2CC2C#N)cc1 (stereo unspecified) and test system WiDr, the measured pIC50 is 5.60

----------
Test system: WiDr
Assay: Inhibition of cell growth in drug sensitive WiDr colon cell line
Format: functional, cell-based
Conditions: Homo sapiens
Readings of pIC50 for the listed compounds
Scale explanation: pIC50 corresponds to minus log10 of a concentration expressed in moles per litre.

The cases that follow already have their pIC50 on record.
| COMPOUND | TESTED_ON | pIC50 |
| --- | --- | --- |
| N#CC1CN1C(=O)Nc1ccc(C(F)(F)F)cc1 (centres undefined) | WiDr | 5.89 |
| CCOC(=O)CNC(=O)N1CC1C#N (centres undefined) | WiDr | 4.51 |

// pIC50 lookup, compound = N#CC1CN1C(=O)Nc1cccnc1 (centres undefined) , result: 5.22

// pIC50 lookup, compound = CCCCNC(=O)N1CC1C#N (centres undefined) , result: 4.85

----------
System: MCF7
Experiment: Inhibition of cell growth in drug sensitive MCF-7 breast cell line
Type: functional, cell-based
Conditions: Homo sapiens
pIC50: −log10 of the molar value.
Respond with criterion met for pIC50 values of 5 and above, criterion not met for values below.

| COMPOUND | LABEL_CLASS |
| --- | --- |
| N#CC1CN1C(N)=O (stereo not given) | criterion not met |
| CC(=O)c1cccc(NC(=O)N2CC2C#N)c1 (stereo not given) | criterion met |
| COC(=O)c1ccccc1NC(=O)N1CC1C#N (stereo not given) | criterion not met |
| N=C1NC(=O)N2CC12 (stereo not given) [IMEXON] | criterion not met |
| N#CC1CN1C(=O)Nc1ccc(Cl)cc1Cl (stereo not given) | criterion met |

Determine whether measured pIC50 meets or exceeds 5 for N#CC1CN1C(=O)Nc1cccc2ccccc12 (stereo not given)
criterion met

Determine whether measured pIC50 meets or exceeds 5 for N#CC1CN1C(=O)Nc1cccnc1 (stereo not given)
criterion met

Determine whether measured pIC50 meets or exceeds 5 for CCOC(=O)c1ccc(NC(=O)N2CC2C#N)cc1 (stereo not given)
criterion met

Determine whether measured pIC50 meets or exceeds 5 for N#CC1CN1C(=O)Nc1ccc(S(N)(=O)=O)cc1 (stereo not given)
criterion not met

Determine whether measured pIC50 meets or exceeds 5 for N#CC1CN1C(=O)Nc1ccccc1 (stereo not given)
criterion met

----------
Readings of log10(IC50) for the listed compounds
System: OVCAR-3
Experiment: Inhibition of cell growth in (OVCAR-3) ovarian cell line
Format: functional, cell-based
Settings: Homo sapiens
// do not treat as linear: log10 of IC50, unit µM

| COMPOUND | log10(IC50) |
| --- | --- |
| N#CC1CN1C(=O)Nc1ccc(F)cc1 (centres undefined) | 0.77 |

// log10(IC50) lookup, compound = N#CC1CN1C(=O)NCc1ccccc1 (centres undefined) , result: 0.70

// log10(IC50) lookup, compound = N#CC1CN1C(=O)Nc1ccc(Cl)cc1Cl (centres undefined) , result: 1.54

----------
Test system: OVCAR-3
Experiment: Inhibition of cell growth in (OVCAR-3) ovarian cell line
Format: functional, cell-based
Settings: Homo sapiens
OBSERVATION_TYPE: IC50 (µM)
Enter your answer as a number in µM; do not include the unit.

The cases that follow already have their IC50 on record.
| MOLECULE | TESTED_ON | IC50 [µM] |
| --- | --- | --- |
| CNC(=O)N1CC1C#N (stereo not given) | OVCAR-3 | 14 |
| N#CC1CN1C(=O)Nc1cccnc1 (stereo not given) | OVCAR-3 | 10 |
| N#CC1CN1C(=O)Nc1cccc2ccccc12 (stereo not given) | OVCAR-3 | 5.9 |

// IC50 lookup, molecule = CCNC(=O)N1CC1C#N (stereo not given) , result: 14

// IC50 lookup, molecule = N#CC1CN1C(=O)Nc1ccc(Cl)c(Cl)c1 (stereo not given) , result: 5.6

----------
Test system: A-375
Test: Inhibition of cell growth in (A375) melan cell line
Assay type: functional, cell-based
Settings: Homo sapiens
The label is true for IC50 below 20 µM and false for IC50 equal to or exceeding 20 µM.

Study these solved cases before continuing.
| COMPOUND | LABEL_CLASS |
| --- | --- |
| N#CC1CN1C(=O)Nc1ccc(Cl)c(Cl)c1 (stereo not given) | true |
| N#CC1CN1C(=O)Nc1ccc(F)cc1 (stereo not given) | true |
| CCOC(=O)CNC(=O)N1CC1C#N (stereo not given) | false |
| CCCCNC(=O)N1CC1C#N (stereo not given) | true |
| N#CC1CN1C(=O)Nc1cccnc1 (stereo not given) | true |

Regarding CC(=O)c1cccc(NC(=O)N2CC2C#N)c1 (stereo not given) , kindly confirm whether its IC50 is beneath 20 µM.
true

Regarding COC(=O)c1ccccc1NC(=O)N1CC1C#N (stereo not given) , kindly confirm whether its IC50 is beneath 20 µM.
false

Regarding N#CC1CN1C(=O)Nc1ccc(S(N)(=O)=O)cc1 (stereo not given) , kindly confirm whether its IC50 is beneath 20 µM.
false

Regarding CC(C)(C)NC(=O)N1CC1C#N (stereo not given) , kindly confirm whether its IC50 is beneath 20 µM.
false

Regarding N#CC1CN1C(N)=O (stereo not given) , kindly confirm whether its IC50 is beneath 20 µM.
false

Regarding N#CC1CN1C(=O)Nc1ccc(Cl)cc1Cl (stereo not given) , kindly confirm whether its IC50 is beneath 20 µM.
false

Reference for the values: ChEMBL document CHEMBL1132573
